target-under-test: Amine oxidase [flavin-containing] B (Homo sapiens, UniProt P27338)
protocol-summary: Inhibition of human recombinant MAO-B expressed in BTI-TN-5B1-4 insect cells at 100 uM using p-tyramine substrate by Amplex Red MAO assay
stated-conditions: bti-tn-5b1-4, 100 µM
value-kind: inhibition (INH)

Recorded results for 4 compounds are shown here.
CC(=O)N1N=C(c2ccc(C)cc2)OC1c1ccc(Cl)cc1Cl (configuration not stated): Not Active
COc1ccc(C2OC(c3ccc(C)cc3)=NN2C(C)=O)cc1OC (configuration not stated): Not Active
CC(=O)N1N=C(c2ccc(C)cc2)OC1c1ccccc1 (configuration not stated): Not Active
CC(=O)N1N=C(c2ccncc2)OC1c1ccc(Cl)cc1Cl (configuration not stated): Not Active

Param readout = inhibition (INH); param system = Amine oxidase [flavin-containing] B (Homo sapiens, UniProt P27338); param query = CC(=O)N1N=C(c2ccc(C)cc2)OC1c1ccc(N(C)C)cc1 (configuration not stated) ; response: value
Not Active

Param readout = inhibition (INH); param system = Amine oxidase [flavin-containing] B (Homo sapiens, UniProt P27338); param query = CC(=O)N1N=C(c2ccccc2)OC1c1ccc(Cl)cc1 (configuration not stated) ; response: value
Not Active

Param readout = inhibition (INH); param system = Amine oxidase [flavin-containing] B (Homo sapiens, UniProt P27338); param query = COc1ccc(C2=NN(C(C)=O)C(c3ccc(Cl)cc3)O2)cc1 (configuration not stated) ; response: value
Not Active

###

target-under-test: Amine oxidase [flavin-containing] B (Homo sapiens, UniProt P27338)
Sequence (P27338 whole entry): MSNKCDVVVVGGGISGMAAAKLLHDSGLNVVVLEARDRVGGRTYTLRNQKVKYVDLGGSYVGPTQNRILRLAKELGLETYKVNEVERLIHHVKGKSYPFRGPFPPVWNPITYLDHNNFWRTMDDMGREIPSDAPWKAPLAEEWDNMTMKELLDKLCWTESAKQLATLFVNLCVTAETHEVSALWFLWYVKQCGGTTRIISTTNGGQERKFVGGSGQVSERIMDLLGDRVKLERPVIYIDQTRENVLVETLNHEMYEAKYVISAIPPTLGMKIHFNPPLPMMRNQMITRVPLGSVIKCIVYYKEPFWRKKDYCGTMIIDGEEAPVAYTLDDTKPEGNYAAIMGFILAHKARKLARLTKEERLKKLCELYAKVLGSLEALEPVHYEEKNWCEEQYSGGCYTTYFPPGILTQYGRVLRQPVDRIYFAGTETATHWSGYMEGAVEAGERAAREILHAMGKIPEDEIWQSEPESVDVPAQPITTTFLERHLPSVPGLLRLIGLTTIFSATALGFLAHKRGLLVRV
protocol-summary: Inhibition of human recombinant MAO-B expressed in BTI-TN-5B1-4 insect cells using p-tyramine substrate by Amplex Red MAO assay
Listing of recorded IC50 by entry.
Please state the figure in µM; there is no need to write the unit.

Recorded results for 4 compounds are shown here.
CC(=O)N1N=C(c2ccc(C)cc2)OC1c1ccc(C)cc1 (stereo unspecified): 66.6
COc1ccc(C2OC(c3ccc(C)cc3)=NN2C(C)=O)cc1 (stereo unspecified): 74.7
CC(=O)N1N=C(c2ccc(Cl)cc2)O[C@@H]1c1ccc(Cl)cc1: 0.101
CC(=O)N1N=C(c2ccncc2)OC1c1ccc(N(C)C)cc1 (stereo unspecified): 46.8

Given the entry "CC(=O)N1N=C(c2ccc(Br)cc2)O[C@@H]1c1ccc(Cl)cc1" , report its measured IC50.
0.0825

Given the entry CC(=O)N1N=C(c2ccccc2)OC1c1ccc(F)cc1 (stereo unspecified) , report its measured IC50.
9.53
